Hello, the source for this data is the Human Domainome abundance scans (Beltran et al. 2025), in case you need it.

B1: Transcription elongation factor A N-terminal and central domain-containing protein, residues 30 to 77; numbered along this chain, Q8N8B7 (parent)
chain: LTELETIYVTKEHLQETDVVRAVYRVLKNCPSVALKKKAKCLLSKWKA

variants of: B1; experiment: abundance fitness (aPCA) (normalised: wild type 0, dead -1); higher = more abundant; growth selection in yeast, the domain comes from the species named; conditions: Homo sapiens
Records here are stratified by abundance fitness; strata: bottom bin: < -0.6; middle bin: ≥ -0.6 and < -0.2; top bin: ≥ -0.2

Request: Determine which band this variant sits in: `A22K`
Response: top bin

Request: Determine which band this variant sits in: `Q15Y`
Response: middle bin

Request: Determine which band this variant sits in: `R25Q`
Response: top bin

Request: Determine which band this variant sits in: `A34H`
Response: top bin

Request: Determine which band this variant sits in: `W46R`
Response: bottom bin

Request: Determine which band this variant sits in: `E5D`
Response: top bin

Request: Determine which band this variant sits in: `E5R`
Response: bottom bin

Request: Determine which band this variant sits in: `L42D`
Response: bottom bin

Request: Determine which band this variant sits in: `K37T`
Response: middle bin

Request: Determine which band this variant sits in: `D18S`
Response: top bin

Request: Determine which band this variant sits in: `Y8C`
Response: middle bin

Request: Determine which band this variant sits in: `T10Y`
Response: bottom bin
